biological target: PARD3_3, Q8TEW0; assay: holdup assay; set-up: key: below the threshold = too weak to quantify, mostly under pKd 3.1 to 4; conditions: plain residues with an end cap or a label only (N-terminal biotin on a linker: ttds)
Sequence (Q8TEW0 582-685): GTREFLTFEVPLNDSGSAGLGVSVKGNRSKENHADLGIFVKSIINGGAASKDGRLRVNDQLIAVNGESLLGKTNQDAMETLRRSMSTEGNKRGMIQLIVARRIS

binder	pKd
ERKLSSESQV [LRP4, O75096]	below the threshold
SRPQRTQTQV [HPV67-E6, A4U7F2]	below the threshold
TVASEKESVM [SLC1A5, Q15758]	below the threshold
VLRLQSETSV [VANGL1, Q8TAA9]	below the threshold
